Where a name gives a salt, the structure may show the parent alone.
REPORTED ENDPOINT: melting point

MOLECULE | RESULT
COc1cc2nc(N3CCN(C(=O)CCC(C)C)CC3)[nH]c(=O)c2c(OC)c1OC (as salt: salt) | 198 to 201 °C
CCN(C)Cc1ccc2c(c1)CN(c1nc(=O)c3c(OC)c(OC)c(OC)cc3[nH]1)CC2 | 161.4 to 163.9 °C
CNCc1cccc2c1CCN(c1nc(=O)c3c(C)c(OC)c(OC)cc3[nH]1)C2 | 241.9 to 245.5 °C
COc1cc2[nH]c(N3CCN(c4cc(C)ccn4)CC3)nc(=O)c2c(C)c1OC (as salt: HCl) | 277.7 to 280 °C

Quote melting point reported for COc1cc2[nH]c(N3CCC(OCc4ccccc4S(=O)(=O)N(C)C)CC3)nc(=O)c2c(C)c1OC please. 217.9 to 219.8 °C

Fill in melting point for record COc1cc2c(cc1OC)CN(c1cc(=O)c3cc(Cl)c(Cl)cc3[nH]1)CC2 266 to 271 °C

Please indicate melting point recorded for CCOc1c(OC)c(OC)cc2[nH]c(N3CCc4cc(OC)c(OC)cc4C3)nc(=O)c12 (as salt: HCl) 218.5 to 221 °C

Supply measured melting point of CCCC(=N)Nc1cccc2c1CCN(c1nc(=O)c3c(OC)c(OC)c(OC)cc3[nH]1)C2 in your reply. 192.2 to 193.5 °C
